Observed pIC50 values for UniProt:P08543 are listed in what follows.
*1 amine or outer side, *2 acyl side, *3 side chain or, on linkers, in order; H or OH if unused. Where a SMILES comes first, the peptide text is derived from it. [ ]: non-standard residue; d: D form. The star is where a group is joined. Asp(3,3-(CH2)4) = N[C@H](C(=O)O)C1(C(=O)O)CCCC1; tBuAla = CC(C)(C)C[C@H](N)C(=O)O; Tle = CC(C)(C)[C@H](N)C(=O)O; Pyrrolidide = C1CCN(*)C1; CO = O=C([*:1])[*:2]; X1 = CCCC1(N*)CCCC1
Numbers only, as −log10 of the molar value.

molecule	pIC50
CCC(CC)NC(=O)N[C@H](C(=O)N[C@@H](CC(=O)N1CCCC1)C(=O)N[C@H](C(=O)NCCC(C)(C)C)C1(C(=O)O)CCCC1)C(C)(C)C	6.70
CCCC1(NC(=O)N[C@H](C(=O)N[C@@H](CC(=O)N2CCCC2)C(=O)N[C@H](C(=O)N[C@@H](CC(C)(C)C)C(=O)OCC)C2(C(=O)O)CCCC2)C(C)(C)C)CCCC1 ({X1-CO}-[Tle]D(Pyrrolidide)[Asp(3,3-(CH2)4)][tBuAla]-OEt)	6.70

Then this molecule:
Form entry - test system: UniProt:P08543; read-out: pIC50; molecule: CCC(CC)NC(=O)N[C@H](C(=O)N[C@@H](CC(=O)N1CCCC1)C(=O)N[C@H](C(=O)N[C@H](CO)CC(C)(C)C)C1(C(=O)O)CCCC1)C(C)(C)C 7.01

---

*1 amine or outer side, *2 acyl side, *3 side chain or, on linkers, in order; H or OH if unused. Where a SMILES comes first, the peptide text is derived from it. [ ]: non-standard residue; d: D form. The star is where a group is joined. Asp(3,3-(CH2)4) = N[C@H](C(=O)O)C1(C(=O)O)CCCC1; tBuAla = CC(C)(C)C[C@H](N)C(=O)O; Tle = CC(C)(C)[C@H](N)C(=O)O; NH(3-pentyl) = CCC(CC)N*; Pyrrolidide = C1CCN(*)C1; CO = O=C([*:1])[*:2]; X3 = CCCC(C)(C)N*
For HSV-1 ribonucleotide reductase (Human herpesvirus 1), measured pIC50 is reported for the entries below.
Answers are plain numbers, as −log10 of the molar value.

Would you please look over these solved cases?
compound	pIC50
CC(C)(C)C[C@@H](CO)NC(=O)[C@@H](NC(=O)[C@H](CC(=O)N1CCCC1)NC(=O)[C@@H](NC(=O)Nc1ccccc1)C(C)(C)C)C1(C(=O)O)CCCC1	6.15
CCCC(C)(C)NC(=O)N[C@H](C(=O)N[C@@H](CC(=O)N1CCCC1)C(=O)N[C@H](C(=O)N[C@@H](CC(C)(C)C)C(=O)O)C1(C(=O)O)CCCC1)C(C)(C)C ({X3-CO}-[Tle]D(Pyrrolidide)[Asp(3,3-(CH2)4)][tBuAla]-OH)	7.00
CCC(CC)NC(=O)N[C@H](C(=O)N[C@@H](CC(=O)N1CCCC1)C(=O)N[C@H](C(=O)N[C@@H](CC(C)(C)C)C(=O)O)C1(C(=O)O)CCCC1)C(C)(C)C ({NH(3-pentyl)-CO}-[Tle]D(Pyrrolidide)[Asp(3,3-(CH2)4)][tBuAla]-OH)	7.00

State recorded pIC50 for all listed compounds.
1. CCCC(CCC)NC(=O)N[C@H](C(=O)N[C@@H](CC(=O)C1CCCCC1)C(=O)N[C@H](C(=O)NCC(C)(C)C)C1(C(=O)O)CCCC1)C(C)(C)C
2. CCCC(CC)(CCC)NC(=O)N[C@H](C(=O)N[C@@H](CC(=O)N1CCCC1)C(=O)N[C@H](C(=O)N[C@H](CC)C(C)(C)C)C1(C(=O)O)CCCC1)C(C)(C)C

1. 6.85
2. 6.85
